# assay info: Cytotoxicity against human Fem-X cells after 72 hrs by MTT assay
# Assay type: functional, cell-based
test readout: pIC50
Recall that pIC50 is obtained by taking minus log10 of the concentration measured in molar.

Task: Bench note: what pIC50 did `COc1ccc(Nc2c(-c3ccc(OC)cc3)cnc3ccccc23)cc1` show?
Result: 4.25

Task: Can you check `CCc1ccc(Nc2nc3ccccc3cc2-c2ccccc2)cc1` next?
Result: 4.04

Task: Can you check `COc1ccc(Nc2cc(-c3ccc(C)cc3)ccn2)cc1` next?
Result: 4.48

Task: Can you check `COc1cccc(Nc2nc3ccccc3cc2-c2ccccc2)c1` next?
Result: 3.89

Task: Can you check `Cc1ccc(-c2ccnc(Nc3ccc(F)cc3)c2)cc1` next?
Result: 4.10

---
Task: Bench note: what pIC50 did `Fc1ccc(Nc2ccc3ccccc3n2)cc1` show?
Result: 4.46

Task: Can you check `COc1ccc(Nc2nc3ccccc3cc2-c2ccc(C)cc2)cc1` next?
Result: 4.19

Task: Can you check `COc1ccc(Nc2cc(-c3cccc(C(F)(F)F)c3)ccn2)cc1` next?
Result: 4.17

Task: Can you check `COc1ccc(Nc2c(-c3ccccc3)cnc3ccccc23)cc1` next?
Result: 4.46

Task: Can you check `COc1ccc(Nc2cccnc2)cc1` next?
Result: 3.93

Task: Can you check `COc1ccc(Nc2ccccn2)cc1` next?
Result: 3.91

Task: Can you check `COc1ccc(Nc2ccc3ccccc3n2)cc1` next?
Result: 4.37
